test system: KSHV-infected DMVEC; experiment: XTT proliferation assay of PMO-loaded KSHV-infected DMVEC (Example 3); format: cell-based, human; conditions: PMO antisense silencing
MEASURE: inhibition of KSHV-induced cellular proliferation (in words)

| SUBSTANCE | ASSAY_VALUE |
| --- | --- |
| INSR: PMO antisense to INSR, GGGTCTCCTCGGATCAGGCGCG (SEQ ID NO:20) (all phosphorodiamidate morpholino (PMO); delivered paired with partially complementary DNA oligo (Special Delivery)) | substantial inhibition |
| Neuritin: PMO antisense to Neuritin, TTAACTCCCATCCTACGTTTAGTCA (SEQ ID NO:19) (all phosphorodiamidate morpholino (PMO); delivered paired with partially complementary DNA oligo (Special Delivery)) | substantial inhibition |

* * *

test system: KSHV-infected DMVEC; test: Morpholino treatment and focus inhibition assay (Example 5); type: cell-based, human; settings: PMO-treated KSHV-infected DMVEC vs control PMO; repeated three times
MEASURE: Foci/spindle morpholigical inhibition

| SUBSTANCE | ASSAY_VALUE |
| --- | --- |
| LMO2: PMO antisense to LMO2, GCCGAGGACATTGGGGAGGGAGGCG (SEQ ID NO:23) (all phosphorodiamidate morpholino (PMO); delivered paired with partially complementary DNA oligo (Special Delivery, EPEI)) | None |
| RDC-1: PMO antisense to RDC-1, GAAGAGATGCAGATCCATCGTTCTG (SEQ ID NO:15) (all phosphorodiamidate morpholino (PMO); delivered paired with partially complementary DNA oligo (Special Delivery)) | Full |
| KIT: FITC-labeled PMO targeting the start codon of c-Kit, CGCCTCTCATCGCGGTAGCTGCG (SEQ ID NO:21) (all phosphorodiamidate morpholino (PMO); FITC label attached, position not given here) | Full |

* * *

tested on: KSHV-infected DMVEC; assay: PMO antisense inhibition of KSHV-induced spindle cell and foci formation (Example 3); type: cell-based, human; settings: KSHV-infected DMVEC loaded with gene-specific PMO antisense + EPEI
MEASURE: Extent of PMO-induced Inhibition of Spindle Cell Formation

Recorded results for 6 substances are shown here.
| SUBSTANCE | ASSAY_VALUE |
| --- | --- |
| KIT: FITC-labeled PMO targeting the start codon of c-Kit, CGCCTCTCATCGCGGTAGCTGCG (SEQ ID NO:21) (all phosphorodiamidate morpholino (PMO); FITC label attached, position not given here) | full |
| IFACTOR: PMO antisense to IFACTOR, AGCTTCATGTTGGAGGTGTTCG (SEQ ID NO:22) (all phosphorodiamidate morpholino (PMO); delivered paired with partially complementary DNA oligo (Special Delivery)) | none |
| RDC-1: PMO antisense to RDC-1, GAAGAGATGCAGATCCATCGTTCTG (SEQ ID NO:15) (all phosphorodiamidate morpholino (PMO); delivered paired with partially complementary DNA oligo (Special Delivery)) | full |
| LOX: PMO antisense to LOX, GGAGCACGGTCCAGGCGAAGCGCAT (SEQ ID NO:31) (all phosphorodiamidate morpholino (PMO); delivered paired with partially complementary DNA oligo (Special Delivery, EPEI)) | full |
| K1AA0367: PMO antisense to KIAA0367, GTCAGTTTACTCATGTCATCTATTG (SEQ ID NO:18) (all phosphorodiamidate morpholino (PMO); delivered paired with partially complementary DNA oligo (Special Delivery)) | intermediate |
| ANGPTL2: PMO antisense to ANGPTL2, AGCATGTCACGCACAGTGGCCTCAT (SEQ ID NO:33) (all phosphorodiamidate morpholino (PMO); delivered paired with partially complementary DNA oligo (Special Delivery)) | intermediate |

Item MFAP3: PMO antisense to MFAP3, TGAATAAGCAACAATGTAGCTTCAT (SEQ ID NO:24) (all phosphorodiamidate morpholino (PMO); delivered paired with partially complementary DNA oligo (Special Delivery, EPEI)) has what recorded Extent of PMO-induced Inhibition of Spindle Cell Formation?
none

Values were extracted from patent US20070072209A1.
